test.protocol: NCI Yeast Anticancer Drug Screen. Data for the sgs1 mgt1 strain (AID 161)
condition.label: S. cerevisiae sgs1 mgt1 strain, at 50.0 µM
About 79,000 compounds went through this panel and 15% of them were active in at least one assay; those are over-represented in the sample as a whole. Calls of active or inactive are those of the source. Rule as the data show it: active = growth inhibition above about 70%; inactive = the rest.
Thanks in advance; please answer with one of these: active, inactive

Q: Field: outcome | Entry: "COc1ccc(/C=C/C(=O)c2sc(N)nc2C)cc1"
A: inactive

Q: Field: outcome | Entry: CC12CCC3C(CC=C4CC(O)CCC43C)C1CCC(=O)N2 (stereo unspecified)
A: inactive

Q: Field: outcome | Entry: "Cc1ccc(S(=O)(=O)N(C)C)cc1NC1=NCCO1"
A: inactive

Q: Field: outcome | Entry: CCCCCCC1OCC(C)([N+](=O)[O-])CO1 (stereo unspecified)
A: inactive

Q: Field: outcome | Entry: "CC(C)Oc1c(N(C)CCO)c2cc(Cl)ccc2oc1=O"
A: inactive

Q: Field: outcome | Entry: COc1cccc2c1C(=O)c1c(O)c3c(c(O)c1C2=O)CC(O)(C(O)CO)CC3OC1CC(N2CCSCC2)C(O)C(C)O1 (stereo unspecified)
A: active
